Measured values drawn from patent US10556936B2 for this set.

System: basophils in whole blood from HDM allergic donors
Test: Basophil Activation Test (BAT)
Assay type: cell-based, human
Conditions: 1 ng/ml; blood from HDM allergic individuals (n=14)
measurement-label: # of individuals of 14 with positive BAT test

molecule="Derf2: major house dust mite allergen, group 2, Dermatophagoides farinae; control (protein, UniProt Q00855 18-146, looked up) Mite group 2 allergen Der f 2: DQVDVKDCANNEIKKVMVDGCHGSDPCIIHRGKPFTLEALFDANQNTKTAKIEIKASLDGLEIDVPGIDTNACHFMKCPLVKGQQYDIKYTWNVPKIAPKSENVVVTVKLIGDNGVLACAIATHGKIRD" measured_value=13

Proceed to the following item.
Value lookup for # of individuals of 14 with positive BAT test; key = Derf1: major house dust mite allergen, group 1, Dermatophagoides farinae; control (protein, UniProt P16311 99-321, looked up) Peptidase 1: TSACRINSVNVPSELDLRSLRTVTPIRMQGGCGSCWAFSGVAATESAYLAYRNTSLDLSEQELVDCASQHGCHGDTIPRGIEYIQQNGVVEERSYPYVAREQRCRRPNSQHYGISNYCQIYPPDVKQIREALTQTHTAIAVIIGIKDLRAFQHYDGRTIIQHDNGYQPNYHAVNIVGYGSTQGDDYWIVRNSWDTTWGDSGYGYFQAGNNLMMIEQYPYVVIM
10
